- protocolDetails: Phase I plasma pharmacokinetics in patients
- Assay type: in vivo, human
- runConditions: human, plasma, po, 800 mg, Day 7, 800 mg b.i.d. p.o. (n=8), median, course 1; read-out: Cmax
parameterMeasured: Cmax
Please state the number and follow it with the unit.

Look up Cmax for this compound: CC[C@H](CO)Nc1nc(NCc2ccccc2)c2ncn(C(C)C)c2n1 2640 ng/mL

* * *

- protocolDetails: Phase I plasma pharmacokinetics in patients
- Assay type: in vivo, human
- runConditions: human, plasma, po, 200 mg, Day 1, 200 mg b.i.d. p.o. (n=6), median, course 1; read-out: Tmax (converted)
parameterMeasured: Tmax
Please state the number and follow it with the unit.

Look up Tmax for this compound: CC[C@H](CO)Nc1nc(NCc2ccccc2)c2ncn(C(C)C)c2n1 2.78 h
